Molecular target: human S1P3 receptor (Homo sapiens (Human), UniProt Q99500)
Sequence (Q99500 whole entry): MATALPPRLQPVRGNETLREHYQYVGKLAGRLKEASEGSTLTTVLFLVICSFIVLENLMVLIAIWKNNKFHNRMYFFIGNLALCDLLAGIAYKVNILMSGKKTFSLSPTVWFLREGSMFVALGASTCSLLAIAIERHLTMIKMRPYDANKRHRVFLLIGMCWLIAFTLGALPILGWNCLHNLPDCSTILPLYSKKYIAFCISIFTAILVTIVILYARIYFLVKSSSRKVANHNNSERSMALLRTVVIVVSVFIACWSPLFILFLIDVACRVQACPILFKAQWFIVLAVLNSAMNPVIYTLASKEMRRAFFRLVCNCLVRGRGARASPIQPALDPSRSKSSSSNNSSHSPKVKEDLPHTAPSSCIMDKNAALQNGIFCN
Experiment: Activation or block of activation of human S1P3 receptor, Ca+2 FLIPR assay; further: test concentration or dose not given here
Format: cell-based
Details: T24 cells stably expressing the human S1P3 receptor; value in brackets
Please provide measured S1P3 (% inh) for the entries that follow.
Numbers only, in %.

In the examples that follow, each entry is paired with its recorded S1P3 (% inh).
MOLECULE: CC(C)c1c(C(=O)NCc2ccc(F)c(F)c2)c2ccc(NC3CCCC3)cc2n1Cc1ccccn1 [Compound 183]
UNIT_LABEL: %
EXPERIMENTAL_RESULT: 100
//
MOLECULE: CC(C)CO/N=C/c1ccc2c(C(=O)NCc3ccc(F)c(F)c3)c(C(C)C)n(Cc3ccccc3)c2c1
UNIT_LABEL: %
EXPERIMENTAL_RESULT: 100
//
MOLECULE: CC(C)c1c(C(=O)NCc2ccc(F)c(F)c2)c2ccc(-c3nnco3)cc2n1Cc1ccccc1 [Compound 89]
UNIT_LABEL: %
EXPERIMENTAL_RESULT: 98
//
MOLECULE: CC(C)c1c(C(=O)NCc2ccc(F)c(F)c2)c2ccc(OCc3ncco3)cc2n1Cc1ccccc1 [Compound 131]
UNIT_LABEL: %
EXPERIMENTAL_RESULT: 96
//
MOLECULE: CCOC(=O)c1ccc2c(C(=O)NCc3ccc(F)c(F)c3)c(C(C)C)n(Cc3ccccc3)c2c1 [Compound 43]
UNIT_LABEL: %
EXPERIMENTAL_RESULT: 100

Quick batch: S1P3 (% inh) for everything below.
1. CCO/N=C/c1ccc2c(C(=O)NCc3ccc(F)c(F)c3)c(C(C)C)n(Cc3ccccc3)c2c1
2. CC(C)c1c(C(=O)NCc2ccc(F)c(F)c2)c2ccc(Oc3nccs3)cc2n1Cc1ccccn1 [Compound 150]
3. CC(C)c1c(C(=O)NCc2ccc(F)c(F)c2)c2ccc(/C=N/O)cc2n1Cc1ccccc1 [Compound 55]
4. CC(C)Oc1ccc2c(C(=O)NCc3ccc(F)c(F)c3)c(CN3CCCC3)n(Cc3ccccn3)c2c1 [Compound 175]

[99, 100, 100, 100]
